- System: VCaP
- assay_comment: Cytotoxicity against human VCaP cells assessed as inhibition of cell growth after 120 hrs by Cell Glow […] assay
- Assay type: functional, cell-based
- conditions: Homo sapiens, VCaP, 120 h
measured_endpoint: IC50 (nM)
Answers are plain numbers, in nM.

QUERY: Please state recorded IC50 (tested on VCaP) of Oc1ccc2ccccc2c1/N=N/c1nccs1
RESULT: 170
